# experimental-details: Pharmacokinetics of 4b and 6-I in mice (blood concentration-time)
# Format: in vivo, C57BL/6j mice
# condition: mouse, in vivo; IP, 1 mg/Kg in male C57BL/6 mice; Mean; read-out: Terminal t1/2 (converted)
Where a name gives a salt, the structure may show the parent alone.
Below, each entry is listed alongside its reported half-life.
Don't forget the unit after the value.

molecule="CCCC1O[C@@H]2C[C@H]3[C@@H]4C[C@H](F)C5=CC(=O)C=C[C@]5(C)[C@@]4(F)[C@@H](O)C[C@]3(C)[C@]2(C(=O)CN)O1 (some centres unmarked) [Compound 4b, trifluoroacetic Acid Salt]" result="101 min"

Consider the record given below.
Inquiry: Requested field: half-life. Item: CCCC1O[C@@H]2C[C@H]3[C@@H]4C[C@H](F)C5=CC(=O)C=C[C@]5(C)[C@@]4(F)[C@@H](O)C[C@]3(C)[C@]2(C(=O)COc2ccc(N)cc2)O1 (some centres unmarked) [Compound 6-I]
Reply text: 115 min

====

# experimental-details: Solubility in water and DMSO/water
# condition: 10% DMSO in water, aqueous with cosolvent or surfactant or cyclodextrin
measure: solubility
Mention the unit after the number when you answer.

Inquiry: I am curious: what solubility value has been reported for CCC[C@@H]1O[C@@H]2C[C@H]3[C@@H]4CCC5=CC(=O)C=C[C@]5(C)[C@H]4[C@@H](O)C[C@]3(C)[C@]2(C(=O)COc2ccc(NC(=O)[C@H](C)NC(=O)[C@@H](NC(=O)[C@@H](CCCCNC(=O)COC3CCCCCc4c3nnn4CC3OC4OC5C(CO)OC(OC6C(CO)OC(OC7C(CO)OC(OC8C(CO)OC(OC9C(CO)OC(OC3C(O)C4O)C(O)C9O)C(O)C8O)C(O)C7O)C(O)C6O)C(O)C5O)NC(=O)CCOCCOCCOCCOCCNC(=O)CCC(=O)N3Cc4ccccc4C#Cc4ccccc43)C(C)C)cc2)O1 (stereo partly shown) [LP16] ?
Reply text: 100 µg/mL

====

These compounds were tested on Glucocorticoid Receptor (GR) (Homo sapiens (Human), UniProt P04150); IC50 is the recorded read-out.
Sequence (P04150 524-758): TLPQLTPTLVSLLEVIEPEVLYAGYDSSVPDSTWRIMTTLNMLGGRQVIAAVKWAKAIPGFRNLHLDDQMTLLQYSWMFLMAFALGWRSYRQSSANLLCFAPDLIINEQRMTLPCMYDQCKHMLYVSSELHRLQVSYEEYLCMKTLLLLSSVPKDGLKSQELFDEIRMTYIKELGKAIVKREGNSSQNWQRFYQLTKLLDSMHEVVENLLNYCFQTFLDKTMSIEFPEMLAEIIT

compound="CCCC1O[C@@H]2C[C@H]3[C@@H]4CCC5=CC(=O)C=C[C@]5(C)[C@H]4[C@@H](O)C[C@]3(C)[C@]2(C(=O)CNC)O1 (some centres unmarked)" target_entity="Glucocorticoid Receptor (GR) (Homo sapiens (Human), UniProt P04150)" result="10 to 100 nM"
compound=CCC[C@H]1O[C@@H]2C[C@H]3[C@@H]4CCC5=CC(=O)C=C[C@]5(C)[C@H]4[C@@H](O)C[C@]3(C)[C@]2(C(=O)COc2ccc(N)cc2)O1 target_entity="Glucocorticoid Receptor (GR) (Homo sapiens (Human), UniProt P04150)" result="10 to 100 nM"
compound="CC(C)C(=O)OCC(=O)[C@@]12OC(Cc3ccc(N)cc3)O[C@@H]1C[C@H]1[C@@H]3CCC4=CC(=O)C=C[C@]4(C)[C@H]3[C@@H](O)C[C@@]12C (some centres unmarked)" target_entity="Glucocorticoid Receptor (GR) (Homo sapiens (Human), UniProt P04150)" result="< 10 nM"
compound=CCC[C@H]1O[C@@H]2C[C@H]3[C@@H]4CCC5=CC(=O)C=C[C@]5(C)[C@H]4[C@@H](O)C[C@]3(C)[C@]2(C(=O)COc2ccc(N)c(F)c2)O1 target_entity="Glucocorticoid Receptor (GR) (Homo sapiens (Human), UniProt P04150)" result="10 to 100 nM"

# next compound below
Inquiry: Look up IC50: CCCC1O[C@@H]2C[C@H]3[C@@H]4C[C@H](F)C5=CC(=O)C=C[C@]5(C)[C@@]4(F)[C@@H](O)C[C@]3(C)[C@]2(C(=O)CNC)O1 (some centres unmarked)
Reply text: < 10 nM

====

// each record: one item and its pIC50 for Glucocorticoid Receptor (GR) (Homo sapiens (Human))
pIC50: −log10 of the molar value.

Worked examples, 4 compounds total:
compound=CCC[C@@H]1O[C@@H]2C[C@H]3[C@@H]4CCC5=CC(=O)C=C[C@]5(C)[C@H]4[C@@H](O)C[C@]3(C)[C@]2(C(=O)COc2ccc(NC(C)=O)cc2)O1 result="> 8.00"
compound=CCC[C@@H]1O[C@@H]2C[C@H]3[C@@H]4CCC5=CC(=O)C=C[C@]5(C)[C@H]4[C@@H](O)C[C@]3(C)[C@]2(C(=O)COc2ccc(N)cc2)O1 result="7.00 to 8.00"
compound="CCCC1O[C@@H]2C[C@H]3[C@@H]4C[C@H](F)C5=CC(=O)C=C[C@]5(C)[C@@]4(F)[C@@H](O)C[C@]3(C)[C@]2(C(=O)COc2ccc(CN)cc2)O1 (some centres unmarked)" result="> 8.00"
compound="CCCC1O[C@@H]2C[C@H]3[C@@H]4C[C@H](F)C5=CC(=O)C=C[C@]5(C)[C@@]4(F)[C@@H](O)C[C@]3(C)[C@]2(C(=O)COc2ccc(N)c(F)c2)O1 (some centres unmarked)" result="> 8.00"

Next, consider the following compound.
Inquiry: Any idea what pIC50 came out for CCCC1O[C@@H]2C[C@H]3[C@@H]4C[C@H](F)C5=CC(=O)C=C[C@]5(C)[C@@]4(F)[C@@H](O)C[C@]3(C)[C@]2(C(=O)COc2cccc(N)n2)O1 (some centres unmarked) on Glucocorticoid Receptor (GR) (Homo sapiens (Human))?
Reply text: > 8.00

====

# experimental-details: Pharmacokinetics of 4b and 6-I in mice (blood concentration-time)
# Type: in vivo, C57BL/6j mice
# condition: mouse, in vivo; IP, 1 mg/Kg in male C57BL/6 mice; Mean; read-out: AUClast
measure: AUC(0-t) (ng·h/mL)
Only the number, expressed in ng·h/mL, is required.

Inquiry: Please look up its AUC(0-t): CCCC1O[C@@H]2C[C@H]3[C@@H]4C[C@H](F)C5=CC(=O)C=C[C@]5(C)[C@@]4(F)[C@@H](O)C[C@]3(C)[C@]2(C(=O)COc2ccc(N)cc2)O1 (stereo partly shown)
Reply text: 107

====

# target-entity: UniProt P04150
# experimental-details: LanthaScreen TR-FRET GR Competitive Binding Assay (cell free)
List of IC50 values.

molecule=C[C@@H]1C[C@H]2[C@@H]3C[C@H](F)C4=CC(=O)C=C[C@]4(C)[C@@]3(F)[C@@H](O)C[C@]2(C)[C@@]1(O)C(=O)CN result="10 to 50 nM"
molecule=CCC[C@@H]1O[C@@H]2C[C@H]3[C@@H]4CCC5=CC(=O)C=C[C@]5(C)[C@H]4[C@@H](O)C[C@]3(C)[C@]2(C(=O)COc2ccc(N)cc2F)O1 result="10 to 100 nM"
molecule=CCC[C@@H]1O[C@@H]2C[C@H]3[C@@H]4CCC5=CC(=O)C=C[C@]5(C)[C@H]4[C@@H](O)C[C@]3(C)[C@]2(C(=O)COc2ccc(NC)cc2)O1 result="10 to 100 nM"
molecule="CCCC1O[C@@H]2C[C@H]3[C@@H]4CCC5=CC(=O)C=C[C@]5(C)[C@H]4[C@@H](O)C[C@]3(C)[C@]2(C(=O)COc2ccc(N)cc2)O1 (some centres unmarked)" result="10 to 100 nM"

Inquiry: Fill in the blank: the reported IC50 of "CCC[C@H]1O[C@@H]2C[C@H]3[C@@H]4C[C@H](F)C5=CC(=O)C=C[C@]5(C)[C@@]4(F)[C@@H](O)C[C@]3(C)[C@]2(C(=O)COc2ccc(N)cc2)O1" is ____.
Reply text: < 10 nM

====

# target-entity: human liver cathepsin B (Homo sapiens (Human))
# experimental-details: Linker-payload cleavage in Cathepsin B assay
# Type: biochemical
# condition: without CA074; 4 hr incubation with Cathepsin B; Mean
measure: Conversion rate (%)
Numbers only; they are read as %.

Inquiry: Name the recorded Conversion rate (%) for CCCC1O[C@@H]2C[C@H]3[C@@H]4C[C@H](F)C5=CC(=O)C=C[C@]5(C)[C@@]4(F)[C@@H](O)C[C@]3(C)[C@]2(C(=O)CNC(=O)OCc2ccc(NC(=O)[C@H](CCCNC(N)=O)NC(=O)[C@@H](NC(=O)[C@@H](CCCCNC(=O)COC3CCCCCc4c3nnn4CC3OC4OC5C(CO)OC(OC6C(CO)OC(OC7C(CO)OC(OC8C(CO)OC(OC9C(CO)OC(OC3C(O)C4O)C(O)C9O)C(O)C8O)C(O)C7O)C(O)C6O)C(O)C5O)NC(=O)CCOCCOCCOCCOCCNC(=O)CCC(=O)N3Cc4ccccc4C#Cc4ccccc43)C(C)C)cc2)O1 (stereo partly shown) .
Reply text: 29.0
